src = PubChem BioAssay (EPA / NIEHS)

target: human Dopamine Receptor D4.4 (DRD4.4), DRD4 (gene 1815); assay: NVS_GPCR_hDRD4.4: NovaScreen (NVS) G Protein-Coupled Receptor Assay for human Dopamine Receptor D4.4 (DRD4.4) (AID 2283264)
Records with an inconclusive call do not appear. Activity calls are given as the source filed them. Rule for the calls: active = hit-call score of the fitted dose curve at least 0.9, where 1 is the maximum; inconclusive = response in the unintended direction; inactive = score below 0.9.
Mark one answer only. Choices: true = active, false = inactive

Solved entries (count: 3):
> print(dat)
                                item.smiles  discrete.label
1  O=C(O)c1[nH]n(-c2ccc(S(=O)(=O)O)cc2)c(=O)c1N=Nc1ccc(S(=O)(=O)O)cc1            true
2  O=C(N[C@@H](c1ccccc1)[C@@H]1CCCCN1)c1cccc(C(F)(F)F)c1Cl           false
3  CN(C)C(=O)NC1(c2ccccc2)CCN(CCC[C@]2(c3ccc(Cl)c(Cl)c3)CCCN(C(=O)c3ccccc3)C2)CC1            true

Next:
Can you look up the reported call for `CCCCCCCCCCCCCCOS(=O)(=O)O` for me?
true

* * *

target: Estrogen receptor beta (Homo sapiens); assay: OT_ER_ERbERb_1440: Odyssey Thera (OT) 24-hour HEK293T Protein-Complementation Assay for Estrogen Receptor-beta/-beta Homodimer (AID 2283380);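 note: fluorescence gain from ER beta LBD homodimer complementation read by laser scanning cytometry; scored as signal increase over DMSO baseline for both agonists and antagonists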
Active and inactive are the calls of the source. How the source made its calls: active means hit-call score of the fitted dose curve at least 0.9, where 1 is the maximum; inconclusive means response in the unintended direction; inactive means score below 0.9.
Mark one answer only. Choices: label 1 (active), label 0 (inactive)

Solved entries (count: 3):
> print(dat)
                                   molecule                        subject.of.test  discrete.label
1                              Oc1ccc(O)cc1  Estrogen receptor beta (Homo sapiens)         label 1
2                            O=Cc1ccccc1C=O  Estrogen receptor beta (Homo sapiens)         label 0
3  CCC(C)N(C)C(=O)c1cc2ccccc2c(-c2ccccc2Cl)n1 (configuration not stated)  Estrogen receptor beta (Homo sapiens)         label 0

Can you look up the reported call for `O=[Si]=O` for me?
label 0

* * *

assay: CCTE_Simmons_MITO_max_resp_rate: CCTE's HepG2 Seahorse XF Respirometric Screening Assay at Maximal Respiratory State [uncoupled], Simmons Lab (AID 2284002); conditions: actives raise or lower the signal
Active and inactive are the calls of the source. The calls were made as follows: active = hit-call score of the fitted dose curve at least 0.9, where 1 is the maximum; inactive = score below 0.9.
ENDPOINT: AC50

Below: 5 compounds and their reported AC50.
> print(dat)
                                   compound  endpoint  recorded.measurement
1                    Cc1ccc(C(C)(C)C)c(O)c1      AC50              inactive
2  CC(C)OC(=O)C(C)(C)Oc1ccc(C(=O)c2ccc(Cl)cc2)cc1      AC50      37.2 µM (active)
3  CCc1cc(C2=C(C(=O)O)N(c3ccccc3C(F)(F)F)S(=O)(=O)c3ccccc32)cc2c1OCO2      AC50              inactive
4  Cc1c(C)c2c(c(C)c1O)CCC(C)(COc1ccc(CC3SC(=O)NC3=O)cc1)O2 (stereo not drawn)      AC50      7.83 µM (active)
5  CC(C)(O)c1ccc(CNC(=O)c2cccnc2Oc2ccc(F)cc2)cc1      AC50      18.6 µM (active)

For the 3 compounds below, give their AC50 values.
1. CCCCCCC(C=O)=Cc1ccccc1
2. O=C1OC(c2ccc(O)cc2)(c2ccc(O)cc2)c2ccccc21
3. CCN(CC)CCOc1ccc(C(=C(Cl)c2ccccc2)c2ccccc2)cc1

["inactive", "inactive", "91 µM (active)"]
